The origin of these recorded values is the supplement of paper PMC6757056.

Reported normalized RNA/DNA level without ligand (log10) values for the following variants.
B1: library; a variant is named by its letters at N, in order (parent)
chain: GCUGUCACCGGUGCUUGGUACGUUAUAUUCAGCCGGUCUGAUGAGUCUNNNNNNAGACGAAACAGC

Variants of: B1
Experimental details: normalized RNA/DNA level without ligand (relative to sTRSVctl = 100) (log10 (% of sTRSVctl)); HEK293T overexpressing SLC46A1; higher = less ribozyme self-cleavage, higher mRNA level
Condition summary: without (6R,S)-folinic acid; ligand present: no

Some solved cases for reference:
GCUGUCACCGGUGCUUGGUACGUUAUAUUCAGCCGGUCUGAUGAGUCUCUGGUUAGACGAAACAGC [CUGGUU]: 1.97
GCUGUCACCGGUGCUUGGUACGUUAUAUUCAGCCGGUCUGAUGAGUCUCCUCUUAGACGAAACAGC [CCUCUU]: 2.03
GCUGUCACCGGUGCUUGGUACGUUAUAUUCAGCCGGUCUGAUGAGUCUACGCUUAGACGAAACAGC [ACGCUU]: 2.06
GCUGUCACCGGUGCUUGGUACGUUAUAUUCAGCCGGUCUGAUGAGUCUGAGACCAGACGAAACAGC [GAGACC]: 2.02
GCUGUCACCGGUGCUUGGUACGUUAUAUUCAGCCGGUCUGAUGAGUCUUUACACAGACGAAACAGC [UUACAC]: 2
GCUGUCACCGGUGCUUGGUACGUUAUAUUCAGCCGGUCUGAUGAGUCUAUGAUUAGACGAAACAGC [AUGAUU]: 1.99
GCUGUCACCGGUGCUUGGUACGUUAUAUUCAGCCGGUCUGAUGAGUCUCUACUAAGACGAAACAGC [CUACUA]: 2.02
GCUGUCACCGGUGCUUGGUACGUUAUAUUCAGCCGGUCUGAUGAGUCUCUCAAAAGACGAAACAGC [CUCAAA]: 2
GCUGUCACCGGUGCUUGGUACGUUAUAUUCAGCCGGUCUGAUGAGUCUUCAAAAAGACGAAACAGC [UCAAAA]: 1.94
GCUGUCACCGGUGCUUGGUACGUUAUAUUCAGCCGGUCUGAUGAGUCUUACUGGAGACGAAACAGC [UACUGG]: 1.65

Bench note: what normalized RNA/DNA level without ligand (log10) did GCUGUCACCGGUGCUUGGUACGUUAUAUUCAGCCGGUCUGAUGAGUCUGAUUUCAGACGAAACAGC [GAUUUC] show?
2.06
